molecular target: human PTH1 receptor (Homo sapiens, UniProt Q03431); experiment: In vitro cAMP signal activity in HKRK-B7 cells (LLC-PK1 cells overexpressing the human PTH1 receptor); format: cell-based; conditions: HKRK-B7 cells; compound at 1×10^−3 M; cAMP produced as percentage of that produced by hPTH(1-34) at 100 nM
Sequence (Q03431 27-593): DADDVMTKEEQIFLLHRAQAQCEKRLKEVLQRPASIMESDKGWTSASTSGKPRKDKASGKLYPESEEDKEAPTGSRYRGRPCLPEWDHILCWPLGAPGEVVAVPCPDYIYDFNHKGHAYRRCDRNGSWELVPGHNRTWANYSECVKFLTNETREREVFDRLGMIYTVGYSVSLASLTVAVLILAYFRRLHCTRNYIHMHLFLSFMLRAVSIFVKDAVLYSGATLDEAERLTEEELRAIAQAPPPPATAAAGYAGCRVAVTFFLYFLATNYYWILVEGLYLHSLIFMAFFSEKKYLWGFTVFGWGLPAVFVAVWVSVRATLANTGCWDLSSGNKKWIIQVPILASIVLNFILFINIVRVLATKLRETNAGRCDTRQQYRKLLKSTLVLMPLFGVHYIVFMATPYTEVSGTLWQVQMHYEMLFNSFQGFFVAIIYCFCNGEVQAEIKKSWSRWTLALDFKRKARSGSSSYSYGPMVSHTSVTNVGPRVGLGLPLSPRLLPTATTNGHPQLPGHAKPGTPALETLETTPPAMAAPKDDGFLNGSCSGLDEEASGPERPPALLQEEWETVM
MEASUREMENT NAME: cAMP production activity (%)

| COMPOUND | TESTED TARGET | MEASUREMENT NAME | UNIT ABBREVIATION | EXPERIMENTAL RESULT |
| --- | --- | --- | --- | --- |
| CNC(=O)c1ccc(C)c(CCS(=O)(=O)N2CCC3(CC2)N=C(c2cccc(OC(F)(F)F)c2)NC3=O)c1 [Compound 415] | human PTH1 receptor (Homo sapiens, UniProt Q03431) | cAMP production activity (%) | % | 56 |
| CNc1cc(C)c(CCS(=O)(=O)N2CCC3(CC2)N=C(C(C)(F)F)NC3=O)c(C)c1.Cl [Compound 1287] | human PTH1 receptor (Homo sapiens, UniProt Q03431) | cAMP production activity (%) | % | 64 |
| CC(C)(C)OCC(=O)N1CCCC(C2=NC3(CCN(S(=O)(=O)CCc4cccc5ccccc45)CC3)C(=O)N2)C1 (stereo not shown) [Compound 439] | human PTH1 receptor (Homo sapiens, UniProt Q03431) | cAMP production activity (%) | % | 33 |
| Cc1cc(C(=O)N2CC(O)C2)cc(C)c1CCS(=O)(=O)N1CCC2(CC1)N=C(c1ccc(F)c(OC(F)(F)F)c1)NC2=O [Compound 1337] | human PTH1 receptor (Homo sapiens, UniProt Q03431) | cAMP production activity (%) | % | 44 |
| CN(C)C(=O)CNc1ccc(CCS(=O)(=O)N2CCC3(CC2)N=C(C2CCCCC2)NC3=O)c(C(F)(F)F)c1 [Compound 270] | human PTH1 receptor (Homo sapiens, UniProt Q03431) | cAMP production activity (%) | % | 55 |
| CCCC[C@@H]1CCC[C@H](C2=NC3(CCN(S(=O)(=O)CCc4c(C)cc(N(C)C(N)=O)cc4C)CC3)C(=O)N2)C1 [Compound 1145] | human PTH1 receptor (Homo sapiens, UniProt Q03431) | cAMP production activity (%) | % | 102 |
| CC(=O)Nc1ccc(CCS(=O)(=O)N2CCC3(CC2)N=C(C2CCC(C)CC2)NC3=O)c(C)c1 (stereo not shown) [Compound 148] | human PTH1 receptor (Homo sapiens, UniProt Q03431) | cAMP production activity (%) | % | 79 |
| NCC(=O)N1CCCC(C2=NC3(CCN(S(=O)(=O)c4cccc(Cl)c4)CC3)C(=O)N2)C1 (stereo not shown) [Compound 442] | human PTH1 receptor (Homo sapiens, UniProt Q03431) | cAMP production activity (%) | % | 2.5 |
| CC(=O)N(c1ccc(/C=C/S(=O)(=O)N2CCC3(CC2)N=C(c2cccc(OC(F)(F)F)c2)NC3=O)c(C)c1)C(C)C [Compound 603] | human PTH1 receptor (Homo sapiens, UniProt Q03431) | cAMP production activity (%) | % | 69 |
| O=C1NC(C2CCCCC2)=NC12CCN(S(=O)(=O)/C=C/c1ccc3[nH]ccc3c1)CC2 [Compound 178] | human PTH1 receptor (Homo sapiens, UniProt Q03431) | cAMP production activity (%) | % | 29 |
| CC(=O)N(CCOCCO)c1ccc(/C=C/S(=O)(=O)N2CCC3(CC2)N=C(C2CCC(CCC(F)(F)F)CC2)NC3=O)c(C)c1 (stereo not shown) [Compound 544] | human PTH1 receptor (Homo sapiens, UniProt Q03431) | cAMP production activity (%) | % | 80 |
| CCCCCCCCCC1=NC2(CCN(S(=O)(=O)CCc3c(C)cc(N(C)C(N)=O)cc3C)CC2)C(=O)N1 [Compound 817] | human PTH1 receptor (Homo sapiens, UniProt Q03431) | cAMP production activity (%) | % | 111 |
| CCCCC1CCC(C2=NC3(CCN(S(=O)(=O)CCc4c(C)cc(N5C(=O)CNC5=O)cc4C)CC3)C(=O)N2)CC1 (stereo not shown) [Compound 677] | human PTH1 receptor (Homo sapiens, UniProt Q03431) | cAMP production activity (%) | % | 69 |
| CC(=O)Nc1ccc(CCS(=O)(=O)N2CCC3(CC2)N=C(C2CCC(CC(F)F)CC2)NC3=O)c(C)c1 (stereo not shown) [Compound 1060] | human PTH1 receptor (Homo sapiens, UniProt Q03431) | cAMP production activity (%) | % | 58 |
| Cc1cc2[nH]c(=O)oc2c(C)c1CCS(=O)(=O)N1CCC2(CC1)N=C([C@H]1CC[C@H](C)CC1)NC2=O [Compound 671] | human PTH1 receptor (Homo sapiens, UniProt Q03431) | cAMP production activity (%) | % | 81 |
| Cc1cc(N(C)C(N)=O)cc(C)c1CCS(=O)(=O)N1CCC2(CC1)N=C(CCCCCCCCCN)NC2=O [Compound 1324] | human PTH1 receptor (Homo sapiens, UniProt Q03431) | cAMP production activity (%) | % | 1.0 |
| CCCCC1CCC(C2=NC3(CCN(S(=O)(=O)CCc4ccc(C(=O)N(C)C)cc4C)CC3)C(=O)N2)CC1 (stereo not shown) [Compound 894] | human PTH1 receptor (Homo sapiens, UniProt Q03431) | cAMP production activity (%) | % | 85 |
| O=C1NC(c2ccc(F)c(C(F)(F)F)c2)=NC12CCN(S(=O)(=O)/C=C/c1cccc3c1ccn3C[C@H](O)CO)CC2 [Compound 643] | human PTH1 receptor (Homo sapiens, UniProt Q03431) | cAMP production activity (%) | % | 94 |
| CCCC=C1CCC(C2=NC3(CCN(S(=O)(=O)CCc4ccc(NC(C)=O)cc4C)CC3)C(=O)N2)CC1 (stereo not shown) [Compound 1079] | human PTH1 receptor (Homo sapiens, UniProt Q03431) | cAMP production activity (%) | % | 91 |
| CN(C)C(=O)c1ccc(CCCS(=O)(=O)N2CCC3(CC2)N=C(C2CCCCC2)NC3=O)cc1 [Compound 324] | human PTH1 receptor (Homo sapiens, UniProt Q03431) | cAMP production activity (%) | % | 30 |
| Cc1cc(C(=O)N2CCC(O)(CF)CC2)cc(C)c1CCS(=O)(=O)N1CCC2(CC1)N=C(c1ccc(OC(F)(F)F)cc1)NC2=O [Compound 1276] | human PTH1 receptor (Homo sapiens, UniProt Q03431) | cAMP production activity (%) | % | 140 |
| Cc1cc(N(C)C(N)=O)cc(C)c1CCS(=O)(=O)N1CCC2(CC1)N=C(c1ccc(F)c(OC(F)(F)F)c1)NC2=O [Compound 1028] | human PTH1 receptor (Homo sapiens, UniProt Q03431) | cAMP production activity (%) | % | 75 |
| Cc1cc(C(=O)N2CCCO2)cc(C)c1/C=C/S(=O)(=O)N1CCC2(CC1)N=C(C1CCC(CCC(F)(F)F)CC1)NC2=O (stereo not shown) [Compound 992] | human PTH1 receptor (Homo sapiens, UniProt Q03431) | cAMP production activity (%) | % | 65 |
| CC1CCCC(C2=NC3(CCN(S(=O)(=O)c4cccc(Cl)c4)CC3)C(=O)N2)C1 (stereo not shown) [Compound 19] | human PTH1 receptor (Homo sapiens, UniProt Q03431) | cAMP production activity (%) | % | 35 |
| Cc1nc(C)c(C2=NC3(CCN(S(=O)(=O)CCc4ccc(C(=O)N(C)C)cc4C)CC3)C(=O)N2)s1 [Compound 102] | human PTH1 receptor (Homo sapiens, UniProt Q03431) | cAMP production activity (%) | % | 23 |
| O=C1NC(Cc2ccccc2)=NC12CCN(S(=O)(=O)c1cccc(Cl)c1)CC2 [Compound 7] | human PTH1 receptor (Homo sapiens, UniProt Q03431) | cAMP production activity (%) | % | 13 |
| CCCCC1CCC(C2=NC3(CCN(S(=O)(=O)/C=C/c4c(C)cc(C(=O)N5CCC(OCCO)CC5)cc4C)CC3)C(=O)N2)CC1 (stereo not shown) [Compound 1008] | human PTH1 receptor (Homo sapiens, UniProt Q03431) | cAMP production activity (%) | % | 73 |
| CC(=O)Nc1ccc(CCS(=O)(=O)N2CCC3(CC2)N=C(c2cccc(C)c2C)NC3=O)c(C)c1 [Compound 146] | human PTH1 receptor (Homo sapiens, UniProt Q03431) | cAMP production activity (%) | % | 122 |
